# maps each entry to its glycan array binding signal (z-score)
Target: Gal(b1-3)[Fuc(a1-4)]GlcNAc(b1-3)Gal(b1-3)[Fuc(a1-4)]GlcNAc
Experiment: glycan array binding signal (z-score within array); higher = stronger binding
Conditions: glycan notation: IUPAC condensed, linker removed
About 410 targets per protein were measured; listed, in parts, are those with the strongest signals and a random draw of the rest.
Enter a number only.

Sample records with glycan array binding signal (z-score):
BINDER	READING
LecB LY19 (Pseudomonas aeruginosa) (protein) MATQGVFTLPANTQFGVTAFANSAGTQTVNVQVNNETVATFTGQSTNNGIIGSKVLNSGGGGKVQILVSVNGRSSDLVSAQVILANELNFALVGSEDSTDNDYNDAVVVINWPLG	3.35
Epa20 (Candida glabrata) (protein) MGSSHHHHHHSSGLVPRGSHMASSNIPNNYPLGCSNKYSGHLPGLKMELYSYNYVNPRHPDPQNPGKLDQLYDPNLLGTYECFDSSYKDINYPRVGYKSKTLIGRSDGVSGILNFNFVPPWGCMPQKGQLPPAYNFKSNITLSNFTMILFGYFKPKISGNHIFSLHGDDLIYLNFGAGNAFDCCRQESSADNFGNYQAFSLWGINWEKKTLTVYLDMNTYYPIRIFYNNRDYQAIFNFSFKTEFDSSPVIDFQDYFFFLRDIDGGCPGEV	-0.28
Epa11 (Candida glabrata) (protein) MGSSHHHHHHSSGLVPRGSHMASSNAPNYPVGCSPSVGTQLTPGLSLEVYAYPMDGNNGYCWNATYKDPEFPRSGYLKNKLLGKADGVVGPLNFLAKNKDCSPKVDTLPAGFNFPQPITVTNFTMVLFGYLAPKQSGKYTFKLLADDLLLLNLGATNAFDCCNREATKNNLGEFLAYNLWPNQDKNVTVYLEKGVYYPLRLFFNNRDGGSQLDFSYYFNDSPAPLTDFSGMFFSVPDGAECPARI	2.35

Could you now consider this next binder?
Using the record for SSR2 (Sclerotium rolfsii) (protein) MVYKITVRVYQTNPDAFFHPVEKTVWKYANGGTWSITDDQHVLTMGGSGTSGTLRFHADNGESFTATFGVHNYKRWCDIVTNLAADETGMVINQQYYSQKNREEARERQLSNYQVKNAKGRNFQIVYTEAEGNDLHANLIIG , report its glycan array binding signal (z-score).
-0.272
